Value source: PubChem BioAssay (NCI)

growth inhibition for assorted molecules
Test: NCI Yeast Anticancer Drug Screen. Data for the mlh1 rad18 strain (AID 175)
Conditions: S. cerevisiae mlh1 rad18 strain growth inhibition; at 50.0 µM; stronger effect = higher value
The panel holds about 79,000 compounds, 15% with a hit somewhere; the sample as a whole holds those more often.
Only the number, expressed in %, is required.

C[C@H](CCC1=NCCN1)[C@H]1CC[C@H]2[C@@H]3[C@H](O)C[C@@H]4C[C@H](O)CC[C@]4(C)[C@H]3CC[C@]12C = 91

Can you share its growth inhibition? I mean this molecule: C(=N\NC1=NCCN1)/c1ccc(-c2cn3cc(/C=N/NC4=NCCN4)ccc3n2)cc1
99.4

Recorded growth inhibition for CCCCCCC/C=C\C(=O)O , please?
74.5

What does the data say about its growth inhibition? Entry: NC(CCCCCC(N)C(=O)O)C(=O)O (stereo unspecified)
3.05

# get_value(readout='growth inhibition', item= O=C(O)c1cc2ccc(Cl)cc2c2c1C(=O)c1cc(Cl)ccc1-2 )
84.5

Please give the measured growth inhibition for this molecule: O=Cc1c(O)ccc2ccccc12.[Cu+2]
99.2

For the molecule shown here, COc1ccc(C(=O)c2cc(Br)ccc2O)cc1 , give the reported growth inhibition.
90.1

growth inhibition lookup needed for COc1ccc(N=Cc2ccccc2O)cc1 , thanks.
-26.1

Form field: reported growth inhibition of COC1=CC23C=CC1[C@@H](c1ccccc1)C2=C(C)C(=O)N3C(=O)NC1CCCCC1 (stereo partly specified)
50.6

Query (molecule): Ic1ccc2c(c1)N(c1ccccc1)c1cc(N=c3ccc4nc5ccc(I)cc5n(-c5ccccc5)c-4c3)ccc1N2 ; field requested: growth inhibition
93.9

Need growth inhibition, item Cc1ccccc1N1C(=O)c2ccccc2C1=O
84

Quick one: growth inhibition of CCCCc1c2c(nc3c1CCc1cc4cc5c(nc4nc1-3)-c1nc3c(c(CCCC)c1CC5)CCCC3=O)C(=O)CCC2 ?
97.3

// lookup growth inhibition for C#CC(CC)(CC)N=Cc1cc(Cl)cc(Cl)c1O
90.5

Bench note: what growth inhibition did C/C(C=C(C#N)C#N)=C\c1ccc([N+](=O)[O-])cc1 show?
67.3

What value of growth inhibition has been recorded for this entry: O=C(OCCC1CCCCC1)c1cc([N+](=O)[O-])cc([N+](=O)[O-])c1
89.8

###

Assay: NCI Yeast Anticancer Drug Screen. Data for the cln2 rad14 strain (AID 165);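 note: 0% = growth equal to vehicle treated cultures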
Details: S. cerevisiae cln2 rad14 strain, at 50.0 µM (retest, dose inferred, filed as 5.0)
This is part of a sample that, as a whole, favours compounds with a hit. Of some 79,000 tested, about 15% had one in any assay. Calls of active or inactive are those of the source. Cut-off read from the data, not from the text of the source: active = growth inhibition above about 70%; inactive = the rest.
Pick one: active, inactive

Solved cases below.
CC(C)(C)/C=N/NS(=O)(=O)c1ccccc1 = inactive
O=C(O)c1cc2oc(-c3ccccc3)cc2[nH]1 = inactive
NN(c1ccccc1)c1cccc2ccccc12 = active
CC(CN(C)C)C(/C=C/c1ccc(F)cc1)=N\Nc1ccccc1 (configuration not stated) = inactive
Cc1ccc(Cl)cc1NN = active
Cc1ccc(C(C)(C)C)c(O)c1O = active

# fetch the recorded call for O=C(Oc1ccccc1)C1CCCCC1C(=O)Oc1ccccc1 (configuration not stated) here
inactive

###

Test: NCI Yeast Anticancer Drug Screen. Data for the mec2-1 strain (AID 157)
Settings: S. cerevisiae mec2-1 strain, at 50.0 µM (retest, dose inferred, filed as 5.0)
The panel holds about 79,000 compounds, 15% with a hit somewhere; the sample as a whole holds those more often. Active and inactive are the calls of the source. No stated cut-off is given here; in the data, active means growth inhibition above about 70%; inactive means the rest.
Result category, one only: t for active, f for inactive

For orientation, consider the following solved cases.
CN1c2ccccc2S(=O)(=O)n2c(CCc3ccccc3)nnc21 = f
CC(=O)c1c2c(cc3c1CC1(Cc4cc5c(cc4C1)C(=O)CCC5)C3)CCCC2 (stereo not drawn) = f
O=C1CCC(c2ccccc2)=NN1c1nc2ccccc2s1 = t

Kindly provide the recorded test outcome for the following compound: COc1cc(/C=C2\CCc3ccccc3C2=O)ccc1O
t

Check the results log: what was the call for O=S(=O)(Nc1ccc(-c2ccc(Cl)cc2)cc1)c1ccccc1 ?
t

Hey, what did the test say about COC(=O)C1CCN(Cc2ccccc2)CC1=O (stereo not drawn) ?
f

Could you kindly confirm the outcome this assay logged for CN(C)c1ccccc1CCCCCCc1ccccc1N(C)C ?
f

// return assay outcome for COc1ccc2c(c1)CN1C(CCC3c4ccccc4NC31)C2 (stereo not drawn)
f

// return assay outcome for O=C(c1ccc(OCC(O)CN2CCN(c3ccccc3)CC2)cc1)c1cc2ccccc2c2ccccc12 (stereo not drawn)
t

###

Assay: NCI Yeast Anticancer Drug Screen. Data for the rad50 strain (AID 155);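 note: 0% = growth of vehicle-only cultures of the same strain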
Conditions: S. cerevisiae rad50 strain growth inhibition; at 50.0 µM (retest, dose inferred, filed as 5.0); stronger effect = higher value
This is part of a sample that, as a whole, favours compounds with a hit. Of some 79,000 tested, about 15% had one in any assay. Calls of active or inactive are those of the source. No stated cut-off is given here; in the data, active means growth inhibition above about 70%; inactive means the rest.
measurement.name: growth inhibition

Recorded results for 8 compounds are shown here.
O=C(O)Cc1ccc2c(c1O)C(=O)c1ccccc1C2=O = 20% (inactive)
CCOC(=O)C1c2[nH]c3ccccc3c2CCN1C(=O)c1ccc(OC)o1 (configuration not stated) = 71% (active)
CCS(=O)(=O)OC(C)CCl (configuration not stated) = -3% (inactive)
C=CS(=O)(=O)c1ccc(Cl)cc1 = 97% (active)
CN(C)CC(CN(C)C)C(=O)C1CCCCC1 = 90% (active)
C1=CC2OC2CCCCCCCC1 (mixture of isomers) = 75% (active)
CC(CN(C)C)C(/C=C/c1ccc(Cl)cc1)=N\NC(=O)c1ccccc1 (configuration not stated) = 15% (inactive)
CC[C@@H]1O[C@@H]([C@@H]2CC[C@](O)([C@]3(C)CC[C@@H]([C@@H](C)[C@@]4(O)CC[C@H](C)[C@@H](C[C@@]5(O)O[C@@H]([C@@H](C)[C@H](O)C[C@H]6CC[C@H](C)[C@@H]([C@@H](C)C(=O)O)O6)CC[C@@H]5C)O4)O3)O2)CC[C@@]1(C)O = 90% (active)

Turning now to a further record.
Dear colleague, I am looking for the recorded growth inhibition of the following compound: c1ccc(CCCCc2ccncc2)cc1
28% (inactive)

###

This section presents compounds with their documented growth inhibition values.
Assay: NCI Yeast Anticancer Drug Screen. Data for the bub3 strain (AID 167)
Details: S. cerevisiae bub3 mutant strain, at 5.0 µM (retest, dose inferred, filed as 0.5), stronger effect = higher value
This is part of a sample that, as a whole, favours compounds with a hit. Of some 79,000 tested, about 15% had one in any assay.
Numbers only; they are read as %.

C=C(Br)CN(CC(=C)Br)C(C)=O = 14
CN(C)C(=S)S(=O)(=O)CCCCS(=O)(=O)C(=S)N(C)C = -2
CCOc1ccc2c(c1)[n+]([O-])c(S(=O)(=O)c1ccc(C)cc1)c(N)[n+]2[O-] = 37
CCCCC(=O)N/N=C(\C)[C@]1(O)Cc2c(O)c3c(c(O)c2[C@@H](OC2CC(N)C(O)C(C)O2)C1)C(=O)c1c(OC)cccc1C3=O (some centres not stated) = 15
N#CC(C(=O)C(=O)Nc1ccc(Cl)c(Cl)c1)c1c(Cl)cccc1Cl (configuration not stated) = -1
O=S(=O)(Nc1ccc(-c2ccc(Cl)cc2)cc1)c1ccccc1 = 38

Fill blank: measured growth inhibition of the compound CC1=C(C(=O)Nc2cc(C)ccc2C)C(c2cccc([N+](=O)[O-])c2)C(C(=O)Nc2cc(C)ccc2C)=C(C)N1 is ____.
17

Using the record for c1ccc(Nc2nnc3nc(-c4ccccc4)c(-c4ccccc4)nn23)cc1 , report its growth inhibition.
6

Can you share its growth inhibition? I mean this compound: CC(C)OP(=O)(OC(C)C)/C(I)=N/Nc1ccc([N+](=O)[O-])cc1
1

Suppose we examine the compound Cc1ccc(C2(O)CCN(Cc3ccccc3)CC2)cc1 ; what growth inhibition value has been reported?
64

Which growth inhibition reading was recorded for the compound CC(=O)O/N=C1/CCC2C3CC=C4CC(OC(C)=O)CCC4(C)C3CCC12C (configuration not stated) ?
-7

Which growth inhibition is listed for C1CCC(CCCCc2nn[nH]n2)CC1 ?
-6

What does the data say about its growth inhibition? Entry: CCOC(=O)C1c2[nH]c3ccccc3c2CCN1C(=O)c1ccc(OC)o1 (configuration not stated)
-17

What does the data say about its growth inhibition? Entry: c1ccc(N/N=C2/CCCC3/C(=N\Nc4ccccc4)CCCC23)cc1 (configuration not stated)
-8

What does the record list as growth inhibition for O=C(O)C(=O)Cc1ccccc1[N+](=O)[O-] ?
-10

Which growth inhibition value is on record for S=c1nc(C(c2ccccc2)c2ccccc2)[nH][nH]1 ?
1

I would be grateful if you could share the reported growth inhibition for O=NNc1ncccc1OCc1ccccc1 .
10

Which growth inhibition is listed for OC(Cc1ccccc1)(Cc1ccccc1)c1ccccc1 ?
-14
